Cited source: patent US20180362629A1

Below, each of the binders is paired with its reported absorbance at 450 nm value.
biological target: T1, human β NGF (human, UniProt P01138 122-241, biotinylated in the TrkA inhibition ELISA (sites not given)); assay: TrkA inhibition ELISA; biotin-hNGF bound to rat TrkA/Fc; supernatant 5-fold
T1 construct: Bought (R&D Systems 256-GF/CF); also called Human NGF; biotinylated human NGF
T1 sequence (P01138 122-241 limits assumed): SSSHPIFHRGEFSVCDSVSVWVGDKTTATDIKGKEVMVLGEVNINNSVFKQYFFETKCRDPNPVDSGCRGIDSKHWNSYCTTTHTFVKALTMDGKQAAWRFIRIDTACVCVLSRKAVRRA

- binder: "20B10 hybridoma supernatant (antibody, mouse IgG2b, V domains shown, Tested as supernatant of the hybridoma before subcloning; mouse IgG2b kappa; also called ML129-20B10.3F4) VH: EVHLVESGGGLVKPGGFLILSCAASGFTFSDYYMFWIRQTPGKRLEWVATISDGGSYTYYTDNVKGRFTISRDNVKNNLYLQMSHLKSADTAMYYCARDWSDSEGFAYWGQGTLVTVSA VL: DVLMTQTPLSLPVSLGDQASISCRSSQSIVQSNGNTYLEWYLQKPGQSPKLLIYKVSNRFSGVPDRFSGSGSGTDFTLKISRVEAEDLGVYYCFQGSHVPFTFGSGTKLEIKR"
  absorbance at 450 nm: "0.2 OD450"
- binder: "23F1 hybridoma supernatant (antibody, mouse IgG1, V domains shown, Tested as supernatant of the hybridoma before subcloning; mouse IgG1 kappa; also called ML129-23F1.4G3) VH: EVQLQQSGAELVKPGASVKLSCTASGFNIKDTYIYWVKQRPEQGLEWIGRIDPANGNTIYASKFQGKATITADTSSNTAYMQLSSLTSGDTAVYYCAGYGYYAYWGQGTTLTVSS VL: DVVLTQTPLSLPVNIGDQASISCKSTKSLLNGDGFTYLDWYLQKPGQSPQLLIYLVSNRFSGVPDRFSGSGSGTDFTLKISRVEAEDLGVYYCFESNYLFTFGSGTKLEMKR"
  absorbance at 450 nm: "0.14 OD450"
- binder: "2B12 hybridoma supernatant (antibody, mouse IgG2b, V domains shown, Tested as supernatant of the hybridoma before subcloning; mouse IgG2b kappa; also called ML129-2B12.5G9) VH: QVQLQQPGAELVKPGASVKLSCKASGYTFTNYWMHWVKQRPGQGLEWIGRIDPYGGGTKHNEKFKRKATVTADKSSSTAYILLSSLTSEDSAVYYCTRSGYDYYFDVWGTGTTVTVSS VL: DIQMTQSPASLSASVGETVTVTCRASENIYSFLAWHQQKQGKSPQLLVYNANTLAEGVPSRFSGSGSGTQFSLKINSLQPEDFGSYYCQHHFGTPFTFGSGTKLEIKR"
  absorbance at 450 nm: "0.07 OD450"
